- Experiment Description: NCI Yeast Anticancer Drug Screen. Data for the rad50 strain (AID 155);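 further: 0% = growth of vehicle-only cultures of the same strain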
- Experimental Parameters: S. cerevisiae rad50 strain growth inhibition; at 50.0 µM; stronger effect = higher value
The panel holds about 79,000 compounds, 15% with a hit somewhere; the sample as a whole holds those more often.
Below is a list of entries, each paired with its recorded growth inhibition value.
The reply should contain only the number, in %.

Previously resolved entries follow.
> print(dat)
                                   compound  quantitative.result
1  c1ccc(N=NC(N=Nc2ccccc2)=P(c2ccccc2)(c2ccccc2)c2ccccc2)cc1                 56.4
2           COc1cc(=O)n2c3ccccc3n(C)c2c1C#N                -9.75
3  NC(=O)c1nnsc1N/N=C/c1ccc([N+](=O)[O-])cc1                 8.85
4  NC(=O)c1[nH]c(N=Nc2ccc(S(N)(=O)=O)cc2)nc1N                 28.6
5  Cc1ccc(NC(=O)CC2SC(=Nc3cccc(Cl)c3C)NC2=O)cc1 (stereo unspecified)                 30.9
6  CC1(C)C(=O)OC(n2ccc(=O)[nH]c2=O)C1=O (stereo unspecified)                 7.15
7                  NC(=S)c1ccccc1N=Cc1cccs1                 26.8
8            CS(=O)(=O)Oc1ccccc1OS(C)(=O)=O                 7.95

The measured growth inhibition associated with O=C1S/C(=C2\C(=O)N(CN3CCCCC3)c3ccccc32)C(=O)N1CN1CCCCC1 reads 26.6

The measured growth inhibition associated with N#C/C(=C\N1CC(=O)NC1=S)C(=O)c1ccc2ccccc2c1 reads -20.4

The measured growth inhibition associated with CC1=NN2C(c3ccc(Cl)cc3)=CSC2=NC(C)(C)C1 reads 16.6

----------
Below is a list of entries, each paired with its recorded growth inhibition value.
- Experiment Description: NCI Yeast Anticancer Drug Screen. Data for the mec2-1 strain (AID 157)
- Experimental Parameters: S. cerevisiae mec2-1 strain, at 50.0 µM, stronger effect = higher value
This is part of a sample that, as a whole, favours compounds with a hit. Of some 79,000 tested, about 15% had one in any assay.
The reply should contain only the number, in %.

> print(dat)
                                   compound    reported.metric  value.unit  quantitative.result
1    O=C(O)c1[nH]c2c(=O)[nH]c(=O)[nH]c2c1Br  growth inhibition           %                 -2.8
2       O=C1OCC/C1=C\c1cccc([N+](=O)[O-])c1  growth inhibition           %                 14.4
3  COc1ccc2c(c1)CCCN1Cc3cc(OC)c(OC)cc3CC21 (stereo unspecified)  growth inhibition           %                 8.65
4              O=C(Nc1cccc2ccccc12)c1ccccc1  growth inhibition           %                -38.2
5             O=C(O)CSc1n[nH]c(-c2ccccc2)n1  growth inhibition           %                 -4.3

The measured growth inhibition associated with O/N=C1\CC2(N3CCOCC3)CCC1(c1ccccc1)CC2 reads -12.3

The measured growth inhibition associated with c1ccc(COc2ccc3c(c2)CN(Cc2ccccc2)CO3)cc1 reads -28.9
